Taken from patent US20110059490.

# Target Entity: Taq DNA polymerase N485S/R536C/K540C/H784C (UniProt P19821 P19821:1-832, N485S,R536C,K540C,H784C)
# Sequence (P19821 whole entry N485S/R536C/K540C/H784C, one chain of several): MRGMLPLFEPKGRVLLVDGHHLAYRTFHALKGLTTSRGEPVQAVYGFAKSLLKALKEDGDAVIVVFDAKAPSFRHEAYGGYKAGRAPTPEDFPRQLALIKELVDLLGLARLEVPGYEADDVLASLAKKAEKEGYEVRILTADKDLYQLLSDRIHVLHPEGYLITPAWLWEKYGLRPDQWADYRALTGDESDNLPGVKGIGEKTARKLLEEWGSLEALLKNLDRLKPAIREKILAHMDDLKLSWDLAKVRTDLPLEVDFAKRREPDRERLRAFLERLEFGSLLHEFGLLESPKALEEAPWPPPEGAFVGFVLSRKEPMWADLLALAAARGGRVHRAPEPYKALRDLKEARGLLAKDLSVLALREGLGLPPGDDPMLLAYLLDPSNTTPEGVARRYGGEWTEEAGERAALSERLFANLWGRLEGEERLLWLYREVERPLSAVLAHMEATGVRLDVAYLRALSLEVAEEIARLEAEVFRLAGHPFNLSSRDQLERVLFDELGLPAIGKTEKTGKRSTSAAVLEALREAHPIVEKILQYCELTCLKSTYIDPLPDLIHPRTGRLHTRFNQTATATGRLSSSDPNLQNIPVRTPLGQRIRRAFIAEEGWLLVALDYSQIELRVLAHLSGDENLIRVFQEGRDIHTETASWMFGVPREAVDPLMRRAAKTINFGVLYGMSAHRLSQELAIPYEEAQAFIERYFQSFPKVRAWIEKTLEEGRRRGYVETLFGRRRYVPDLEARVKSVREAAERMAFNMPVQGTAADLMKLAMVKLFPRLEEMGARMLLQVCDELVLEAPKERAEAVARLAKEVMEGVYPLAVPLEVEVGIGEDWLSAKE
# Protocol Summary: EMSA; 1x TAE with 2 mM EDTA, pH 8.3, 10% glycerol
# Cond: tags: Fermentas; label: 5'-33P on 24 nt strand; 24 nt primer annealed to 44 nt template, 20 nt 5' template overhang
Value Kind: Kd

[
  {
    "Binder": "24/44 nt template-primer duplex (dsDNA) DNA 1: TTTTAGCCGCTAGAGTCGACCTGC DNA 2: GGAGACAAGCTTGTATGCCTGCAGGTCGACTCTAGCGGCTAAAA",
    "Reported Measurement": "32 nM"
  }
]
